protocol summary: Human HepG2 cell viability assay in 384 well format
Assay type: toxicity, cell-based
Parameters: dose 125 nL, time 70.5 hour; concentration not given beside the values
cond: HepG2 cells, read-out: Inhibition
metric: cytotoxicity at 70.5 h (%)
Just the number please, in %, no unit attached.

As a guide, the following entries are already answered.
INSERT INTO measurements (compound, experimental_result) VALUES
  ('CCc1ccc(CN2CCN(Cc3ncc[nH]3)[C@H]3CS(=O)(=O)C[C@H]32)nc1', -6.57),
  ('CCCC(Nc1nc(COCC)nc2c1CCNCC2)c1nccn1C (stereo unspecified)', 2.1),
  ('OC(COCc1ccco1)CN1CCC(Cn2cccn2)CC1 (stereo unspecified)', -14.1),
  ('COc1ccc(Cn2nnnc2SCC2CCCN(C)C2)cc1 (stereo unspecified)', -8.49),
  ('CCCc1nnc(N2CCN(Cc3ccccc3OC)CC2)o1', 23.6),
  ('COCCNc1nc(C)nc2c1CCN(C[C@H]1CC[C@@H](N)CC1)CC2', 44.2);

## Input What cytotoxicity at 70.5 h value was documented for this compound, `COc1cccc(-c2cnc(C3CCNCC3)cn2)c1` ?
## Output -4.54

## Input What cytotoxicity at 70.5 h value was documented for this compound, CC(O)CN1CCC(CN(C)CC(=O)NC(C)C)CC1 (stereo unspecified) ?
## Output -1.64

## Input What cytotoxicity at 70.5 h value was documented for this compound, O=C(NCc1nncn1-c1ccccc1)C1CC(=O)N(CC2CC2)C1 (stereo unspecified) ?
## Output -18.1

## Input What cytotoxicity at 70.5 h value was documented for this compound, `c1cc(-c2n[nH]cc2-c2ccnc(N3CCCC3)n2)ccn1` ?
## Output -2.36

## Input What cytotoxicity at 70.5 h value was documented for this compound, `Cc1ccc(C2(CN(C)Cc3c(C)nn(C)c3C)CCNCC2)nc1` ?
## Output 19.9

---

protocol summary: Human HepG2 cell viability assay in 384 well format
Assay type: toxicity, cell-based
Set-up: dose 125 nL, time 70.5 hour; concentration not given beside the values
cond: HepG2 cells, read-out: Inhibition
metric: cytotoxicity at 70.5 h (%)
Just the number please, in %, no unit attached.

INSERT INTO results (compound, unit_info, experimental_result) VALUES
  ('Cc1ccc(C(=O)N2CC[C@H]3[C@H]2CCN3CC2CCOCC2)cn1', '%', -9.27),
  ('CN(C)S(=O)(=O)N1CC(c2nc(N)ncc2-c2ccc(F)cc2)C1', '%', -0.38),
  ('Cc1ccc(CN(C)C(=O)CN2CCCC(Cn3cncn3)C2)cc1 (configuration not stated)', '%', 22.9),
  ('CC(C)NC[C@H]1COCc2nc3cccnc3n21', '%', -8.17),
  ('Cc1nc(-c2cc(C(=O)N3CCN(C)CC3)c3ccccn23)cn1C', '%', -0.647),
  ('CN(Cc1ccc(Cl)s1)C(=O)CN(C)C1CCCc2ccccc21 (configuration not stated)', '%', -4.74),
  ('Cc1cccc(C(C(=O)NCCCc2ccncc2)N(C)C)c1 (configuration not stated)', '%', -4.41),
  ('COc1ccc(C2CCCN2C(=O)NCCCn2ccnc2)cc1 (configuration not stated)', '%', 16.1);

## Input What cytotoxicity at 70.5 h value was documented for this compound, `COc1cccc(N2Cc3nc(=O)[nH]n3C2=O)c1` ?
## Output -16.5

## Input What cytotoxicity at 70.5 h value was documented for this compound, `CCNC(=O)N1CCN(C(=O)c2cc(Cl)cc3cccnc23)CC1` ?
## Output -9.51

## Input What cytotoxicity at 70.5 h value was documented for this compound, `O=C(Cc1cnn(-c2ccccc2)n1)NC(C1CC1)C1CC1` ?
## Output 0.511

## Input What cytotoxicity at 70.5 h value was documented for this compound, `CC(C)CNC(=O)CNC(=O)Nc1cccc(Cl)c1-n1cccn1` ?
## Output 1.42

## Input What cytotoxicity at 70.5 h value was documented for this compound, Brc1ccc2[nH]c3c(c2c1)CCCC3c1nn[nH]n1 (configuration not stated) ?
## Output -14.8

## Input What cytotoxicity at 70.5 h value was documented for this compound, `Cc1cccc(C(=O)N(C)Cc2cc(Br)cs2)n1` ?
## Output -27.1

## Input What cytotoxicity at 70.5 h value was documented for this compound, `COC(=O)CCCN(C)C(=O)c1cc(F)cc2[nH]cnc12` ?
## Output 23.5

## Input What cytotoxicity at 70.5 h value was documented for this compound, CCOc1ncccc1C(=O)N1CCCC1Cn1cc(C)cn1 (configuration not stated) ?
## Output -5.13

## Input What cytotoxicity at 70.5 h value was documented for this compound, `Cc1cccnc1CNc1ccc(C(=O)N2CCc3ccccc32)cn1` ?
## Output 0.0725

---

protocol summary: Human HepG2 cell viability assay in 384 well format
Format: toxicity, cell-based
Set-up: dose 125 nL, time 70.5 hour; concentration not given beside the values
cond: HepG2 cells, read-out: Inhibition
# cytotoxicity at 70.5 h values compiled below

INSERT INTO measurements (molecule, experimental_result) VALUES
  ('CC(C(N)=O)N1CCN(c2ncc(Br)cn2)CC1 (configuration not stated)', '0.267%'),
  ('Cc1ccccc1S(=O)(=O)N1CCCCC1c1ccn[nH]1 (configuration not stated)', '-28.4%'),
  ('OCc1cc2ccccc2nc1N1CCCC1', '-15.5%'),
  ('O=C(c1cn(Cc2ccccc2)c2ncccc12)N1CCCCC1', '3.09%'),
  ('Cc1nsc(NC(=O)NC2CCN(C)CC2)n1', '-11.7%');

## Input What cytotoxicity at 70.5 h value was documented for this molecule, `Cn1nnnc1SCCNC(=O)C1CCN(C(=O)C2CCC2)CC1` ?
## Output -5.55%

## Input What cytotoxicity at 70.5 h value was documented for this molecule, `CCS(=O)(=O)N1C[C@H]2CN(c3cnn(C)c3)C(=O)[C@H]2C1` ?
## Output -5.61%

## Input What cytotoxicity at 70.5 h value was documented for this molecule, `CN(CCc1noc(C2CC2)n1)C(=O)CN1C(=O)COc2ccccc21` ?
## Output -4.64%

## Input What cytotoxicity at 70.5 h value was documented for this molecule, `CN(Cc1ncnn1C)C(=O)CCCn1ccc2cc(Cl)ccc21` ?
## Output -1.32%

## Input What cytotoxicity at 70.5 h value was documented for this molecule, Cc1ccsc1C(=O)NCc1ccnc(C2CCCOC2)n1 (configuration not stated) ?
## Output 13.6%

## Input What cytotoxicity at 70.5 h value was documented for this molecule, `Cc1oc(-c2ccsc2)nc1CC(=O)NCCS(C)(=O)=O` ?
## Output -12.9%

## Input What cytotoxicity at 70.5 h value was documented for this molecule, CC(C)n1ncc2c1NC(=O)CC2c1ccccc1Cl (configuration not stated) ?
## Output -6.71%

---

protocol summary: Human HepG2 cell viability assay in 384 well format
Assay type: toxicity, cell-based
Set-up: dose 125 nL, time 70.5 hour; concentration not given beside the values
cond: HepG2 cells, read-out: Inhibition
metric: cytotoxicity at 70.5 h (%)
Just the number please, in %, no unit attached.

INSERT INTO assay_data (compound, experimental_result) VALUES
  ('OCCn1cc(CN2CCN(CCOc3ccc(F)cc3)CC2)cn1', -2.54);

## Input What cytotoxicity at 70.5 h value was documented for this compound, `O=C1CCCN1Cc1ncn2c1CN(C(=O)NC1CCCCC1)CCC2` ?
## Output 27.2

## Input What cytotoxicity at 70.5 h value was documented for this compound, Cn1ccc2cc(C(=O)NC3CCOC(C)(C)C3)ccc21 (stereo unspecified) ?
## Output 7.49

## Input What cytotoxicity at 70.5 h value was documented for this compound, `COC(=O)N1CC2=CC(C)(C)COc3ccc(OC)c(c32)C1` ?
## Output 1.21

## Input What cytotoxicity at 70.5 h value was documented for this compound, COCC1CN(S(=O)(=O)N(C)C)Cc2cnn(CC3CCCC3)c21 (stereo unspecified) ?
## Output -5.7

## Input What cytotoxicity at 70.5 h value was documented for this compound, O=C(NCC1CN(c2ncccn2)Cc2nccn2C1)c1cccnc1 (stereo unspecified) ?
## Output -4.53

## Input What cytotoxicity at 70.5 h value was documented for this compound, `CNC(=O)[C@@H](c1ccccc1F)N1CCC[C@H]1C(=O)NC1CCCC1` ?
## Output -5.2

## Input What cytotoxicity at 70.5 h value was documented for this compound, CCC(C(=O)NCc1ccncc1)N(c1cccc(Cl)c1)S(C)(=O)=O (stereo unspecified) ?
## Output -2.79

---

protocol summary: Human HepG2 cell viability assay in 384 well format
Format: toxicity, cell-based
Parameters: dose 125 nL, time 70.5 hour; concentration not given beside the values
cond: HepG2 cells, read-out: Inhibition
metric: cytotoxicity at 70.5 h (%)
Just the number please, in %, no unit attached.

INSERT INTO measurements (compound, metric, experimental_result) VALUES
  ('COCCN1CCCc2sc(C(=O)N3CCCN(C)CC3)nc21', 'cytotoxicity at 70.5 h', 11.7),
  ('CS(=O)(=O)N1CCCN(c2nccn3cnnc23)CC1', 'cytotoxicity at 70.5 h', -6.97),
  ('CC(=O)Nc1ccc(Oc2ccc3c(c2)OCO3)nc1', 'cytotoxicity at 70.5 h', -12.3);

## Input What cytotoxicity at 70.5 h value was documented for this compound, CCC(O)CN1CCN(C(=O)c2sccc2OC)CC1 (stereo unspecified) ?
## Output 0.647

## Input What cytotoxicity at 70.5 h value was documented for this compound, Cc1nc(C)n(CC2CN(CCOc3cccc(F)c3)CCO2)n1 (stereo unspecified) ?
## Output -9.64

## Input What cytotoxicity at 70.5 h value was documented for this compound, `c1cc(-c2n[nH]c(CNc3nnc(C4CC4)o3)n2)ccn1` ?
## Output 0.716
